# target.or.system: FPR2 (Homo sapiens, UniProt P25090)
# Sequence (P25090 1-351): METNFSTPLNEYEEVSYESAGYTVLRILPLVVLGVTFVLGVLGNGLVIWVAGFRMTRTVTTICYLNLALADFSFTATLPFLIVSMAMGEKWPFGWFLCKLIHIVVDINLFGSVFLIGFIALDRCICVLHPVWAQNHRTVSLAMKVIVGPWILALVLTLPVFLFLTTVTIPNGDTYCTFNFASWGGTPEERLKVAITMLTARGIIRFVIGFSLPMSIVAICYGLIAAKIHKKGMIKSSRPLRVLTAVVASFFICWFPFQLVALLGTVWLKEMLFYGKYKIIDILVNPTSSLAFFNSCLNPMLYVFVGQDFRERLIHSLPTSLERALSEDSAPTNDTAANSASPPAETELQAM
# assay.procedure: Ca2+ mobilization (agonist activity) in FPR2-HL60 cells
# experimental.context: ratio of FPR2 EC50 vs 3b, 3c or 4b
value.kind: fold less potent at FPR2 than the corresponding urea/amide

[
  {
    "compound": "N#Cc1ccc(C[C@H](NC(=S)Nc2ccc(Br)cc2)C(=O)N2CCc3ccccc32)cc1 [6b]",
    "target.or.system": "FPR2 (Homo sapiens, UniProt P25090)",
    "experimental.result": "more than 10 fold"
  },
  {
    "compound": "N#Cc1ccc(C[C@H](NC(=S)Nc2ccc(F)cc2)C(=O)N2CCc3ccccc32)cc1 [5b]",
    "target.or.system": "FPR2 (Homo sapiens, UniProt P25090)",
    "experimental.result": "more than 10 fold"
  },
  {
    "compound": "N#Cc1ccc(C[C@H](NC(=S)Nc2ccc(F)cc2)C(=O)N2CCc3ccc(F)cc32)cc1 [5c]",
    "target.or.system": "FPR2 (Homo sapiens, UniProt P25090)",
    "experimental.result": "more than 10 fold"
  },
  {
    "compound": "N#Cc1ccc(C[C@H](NC(=O)Nc2ccc(F)cc2)C(=S)N2CCc3ccccc32)cc1 [7b]",
    "target.or.system": "FPR2 (Homo sapiens, UniProt P25090)",
    "experimental.result": "23 fold"
  }
]

---

# target.or.system: FPR2 (Homo sapiens)
# assay.procedure: cell-based
pEC50: −log10 of the molar value.
Outcome: true for pEC50 of at least 6; false for anything lower.

Solved entries (count: 4):
[
  {
    "substance.smiles": "N#Cc1ccc(C[C@H](NC(=S)Nc2ccc(F)cc2)C(=O)N2CCc3ccccc32)cc1",
    "target.or.system": "FPR2 (Homo sapiens)",
    "category.label": "false"
  },
  {
    "substance.smiles": "N#Cc1ccc(C[C@H](NC(=S)Nc2ccc(Br)cc2)C(=O)N2CCc3ccccc32)cc1",
    "target.or.system": "FPR2 (Homo sapiens)",
    "category.label": "false"
  },
  {
    "substance.smiles": "N#Cc1ccc(C[C@H](NC(=O)Nc2ccc(Br)cc2)C(=S)N2CCc3ccccc32)cc1",
    "target.or.system": "FPR2 (Homo sapiens)",
    "category.label": "true"
  },
  {
    "substance.smiles": "N#Cc1ccc(C[C@H](NC(=O)Nc2ccc(F)cc2)C(=S)N2CCc3ccccc32)cc1",
    "target.or.system": "FPR2 (Homo sapiens)",
    "category.label": "true"
  }
]

Problem: # check: pEC50 of N#Cc1ccc(C[C@H](NC(=S)Nc2ccc(F)cc2)C(=O)N2CCc3ccc(F)cc32)cc1 is greater than or equal to 6
Result: false

Problem: Repeat with N#Cc1ccc(C[C@H](NC(=O)Nc2ccc(F)cc2)C(=S)NCC2(c3ccc(F)c(Cl)c3)CC2)cc1
Result: false
